B1: Arginine-glutamic acid dipeptide repeats protein, residues 502 to 543; numbered along this chain, Q9P2R6 (parent)
chain: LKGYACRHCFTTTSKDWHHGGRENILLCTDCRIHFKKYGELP

- Variants of: B1
- experimental.protocol: abundance fitness (aPCA) (normalised: wild type 0, dead -1); higher = more abundant; growth selection in yeast, the domain comes from the species named
- run.parameters: Homo sapiens
Please enter yes (1) where abundance fitness is greater than or equal to -0.2, and no (0) where it is lower.

T12R; yes (1)

**Q:** // inclusive: abundance fitness at least -0.2? input: T29H
**A:** no (0)

**Q:** // inclusive: abundance fitness at least -0.2? input: W17N
**A:** no (0)

**Q:** // inclusive: abundance fitness at least -0.2? input: R22T
**A:** yes (1)

**Q:** // inclusive: abundance fitness at least -0.2? input: N24G
**A:** yes (1)

**Q:** // inclusive: abundance fitness at least -0.2? input: H34Y
**A:** yes (1)
